- Tested on: Fibroblast
- ASSAY_TEXT: Multiplex assay against human fibroblast
- Type: toxicity, cell-based
- CONDITION_DESCRIPTION: 24 h, 1 µM, compound concentration 1 uM, replicate 1
ATTRIBUTE_MEASURED: Total Cell Count

> print(dat)
                                    compound  value.reported
 1  c1ccc2oc(-c3csc(C4CCN(Cc5nc6ncccc6[nH]5)CC4)n3)cc2c1             165
 2  Nc1nc2c(c(N3CCNCC3)n1)CCC1=C2[C@@H]2CCCC[C@@H]2O1             198
 3             CNc1oc(-c2cccc3ccccc23)nc1C#N             391
 4  Cc1nc(Cc2cccc(C(F)(F)F)c2)sc1-c1ccc(C(N)=O)nc1 [TP-024n]             113
 5  CC(C)N1CCC(C)(C)c2cc(C#Cc3ccc(C(=O)O)cc3)ccc21             202
 6  COc1ccc(NS(=O)(=O)c2sc3ccc(Cl)cc3c2C)cc1N1CCNCC1.Cl             136
 7  CN(C)CCOc1ccc(-c2nc(-c3ccncc3)c(-c3ccc4c(c3)CC/C4=N\O)[nH]2)cc1 [SB590885]             552
 8  CC(C)(C)c1cnc(CSc2cnc(NC(=O)C3CCNCC3)s2)o1 [BMS-387032]             197
 9  CCc1cc2c(cc1CC)CC(NC[C@H](O)c1ccc(O)c3[nH]c(=O)ccc13)C2 [INDACATEROL]             184
10  CCn1c(-c2nonc2N)nc2cnc(Oc3cccc(NC(=O)c4ccc(OCCN5CCOCC5)cc4)c3)cc21 [GSK-269962A]             126

* * *

Some molecules, each annotated with its measured Population Pyknosed Nuclei (%).
- Tested on: Fibroblast
- ASSAY_TEXT: Multiplex assay against human fibroblast
- Assay type: toxicity, cell-based
- CONDITION_DESCRIPTION: 12 h, 10 µM, compound concentration 10 uM, replicate 1
ATTRIBUTE_MEASURED: Population Pyknosed Nuclei (%)

> print(dat)
                            molecule.smiles  value.reported
1  CCCn1c(=O)c2[nH]c(C34CC5CC(CC3C5)C4)nc2n(CCC)c1=O              43
2  Cl.Cl.NC1(c2ccc(-c3nc4ccn5c(=O)[nH]nc5c4cc3-c3ccccc3)cc2)CCC1              41
3  CCOc1cc2ncc(C#N)c(Nc3ccc(OCc4cccc(F)c4)c(Cl)c3)c2cc1NC(=O)/C=C/CN(C)C              20
4  COc1ccc(NS(=O)(=O)c2sc3ccc(Cl)cc3c2C)cc1N1CCNCC1.Cl              19
5  CNC(=O)c1cc(Oc2ccc(NC(=O)Nc3cc(C(C)(C)C)nn3-c3ccc4ncccc4c3)c(F)c2)ccn1              19
6  COc1cc2c(Nc3ccc(NC(=O)c4ccccc4)cc3)ncnc2cc1OCCCN1CCOCC1              11
7  Cc1cc2c(cc1N1C(=O)c3cccc4c(CCCO)ccc(c34)C1=O)n(C)c(=O)n2C              31
8  COc1cc2c(NC3CCN(C(C)C)CC3)nc(N3CCC(F)(F)CC3)nc2cc1OCCCN1CCCC1              35

* * *

- System: Fibroblast
- ASSAY_TEXT: Multiplex assay against human fibroblast
- Format: toxicity, cell-based
- CONDITION_DESCRIPTION: 12 h, 10 µM, compound concentration 10 uM, replicate 2
Some compounds, each annotated with its measured Population Apoptotic (%).
ATTRIBUTE_MEASURED: Population Apoptotic (%)

COMPOUND	VALUE_REPORTED
COc1ccc(NS(=O)(=O)c2sc3ccc(Cl)cc3c2C)cc1N1CCNCC1.Cl	61%
CNC(=O)c1cc(Oc2ccc(NC(=O)Nc3cc(C(C)(C)C)nn3-c3ccc4ncccc4c3)c(F)c2)ccn1	85%
Nc1ccc(C(=O)Nc2cccc(-c3nc(N4CCOCC4)c4oc5ncccc5c4n3)c2)cn1	51%
Cl.Cl.Nc1ncnc2c1c(-c1cccc(OCc3ccccc3)c1)cn2[C@H]1C[C@@H](CN2CCC2)C1	85%
CCC(=O)O[C@]1(C(=O)SCF)[C@H](C)C[C@H]2[C@@H]3C[C@H](F)C4=CC(=O)C=C[C@]4(C)[C@@]3(F)[C@@H](O)C[C@@]21C [FLUTICASONE PROPIONATE]	28%
CCc1cc2c(cc1CC)CC(NC[C@H](O)c1ccc(O)c3[nH]c(=O)ccc13)C2	68%
CCOc1cc(N2CCC(O)CC2)ccc1Nc1ncc2c(n1)N(C1CCCC1)CCC(=O)N2C	37%
CCn1c(-c2nonc2N)nc2cnc(Oc3cccc(NC(=O)c4ccc(OCCN5CCOCC5)cc4)c3)cc21 [GSK-269962A]	31%
CN(C)CCOc1ccc(-c2nc(-c3ccncc3)c(-c3ccc4c(c3)CC/C4=N\O)[nH]2)cc1	100%
Nc1nc2c(c(N3CCNCC3)n1)CCC1=C2[C@@H]2CCCC[C@@H]2O1	27%
CCOc1cc2ncc(C#N)c(Nc3ccc(OCc4cccc(F)c4)c(Cl)c3)c2cc1NC(=O)/C=C/CN(C)C	37%
Cl.Cl.NC1(c2ccc(-c3nc4ccn5c(=O)[nH]nc5c4cc3-c3ccccc3)cc2)CCC1	80%
CNc1oc(-c2cccc3ccccc23)nc1C#N	80%
CN(C)C/C=C/C(=O)Nc1cc2c(Nc3ccc(F)c(Cl)c3)ncnc2cc1O[C@H]1CCOC1.O=C(O)/C=C\C(=O)O.O=C(O)/C=C\C(=O)O [AFATINIB DIMALEATE]	22%
c1ccc2oc(-c3csc(C4CCN(Cc5nc6ncccc6[nH]5)CC4)n3)cc2c1	66%
Cc1cn(-c2cc(NC(=O)c3ccc4c(c3)CN(c3cncnc3)C[C@@H]4C)cc(C(F)(F)F)c2)cn1	75%

* * *

- Test system: U2OS
- ASSAY_TEXT: Multiplex assay against U2OS
- Format: toxicity, cell-based
- CONDITION_DESCRIPTION: human, 12 h, 10 µM, compound concentration 10 uM, replicate 2
Would you mind labelling by Population Fragmented Nuclei (%)? At or over 10% is rule met, under is rule not met.

COMPOUND	ASSIGNED_LABEL
Cc1cc2c(cc1N1C(=O)c3cccc4c(CCCO)ccc(c34)C1=O)n(C)c(=O)n2C	rule met
COc1ccc(NS(=O)(=O)c2sc3ccc(Cl)cc3c2C)cc1N1CCNCC1.Cl	rule met
CCn1c(-c2nonc2N)nc2cnc(Oc3cccc(NC(=O)c4ccc(OCCN5CCOCC5)cc4)c3)cc21 [GSK-269962A]	rule met
N#Cc1cnc(Nc2cc(NC[C@H]3CNCCO3)c(C(F)(F)F)cn2)cn1	rule not met
CCOc1cc(N2CCC(O)CC2)ccc1Nc1ncc2c(n1)N(C1CCCC1)CCC(=O)N2C	rule not met
CC(C)N1CCC(C)(C)c2cc(C#Cc3ccc(C(=O)O)cc3)ccc21	rule met
COc1cc2c(NC3CCN(C(C)C)CC3)nc(N3CCC(F)(F)CC3)nc2cc1OCCCN1CCCC1	rule met
O=C(O)c1ccc2cc(-c3ccc(O)c(C45CC6CC(CC(C6)C4)C5)c3)ccc2c1	rule met
CN(C)C/C=C/C(=O)Nc1cc2c(Nc3ccc(F)c(Cl)c3)ncnc2cc1O[C@H]1CCOC1.O=C(O)/C=C\C(=O)O.O=C(O)/C=C\C(=O)O [AFATINIB DIMALEATE]	rule met
CCC(=O)O[C@]1(C(=O)SCF)[C@H](C)C[C@H]2[C@@H]3C[C@H](F)C4=CC(=O)C=C[C@]4(C)[C@@]3(F)[C@@H](O)C[C@@]21C [FLUTICASONE PROPIONATE]	rule not met
Cl.Cl.NC1(c2ccc(-c3nc4ccn5c(=O)[nH]nc5c4cc3-c3ccccc3)cc2)CCC1	rule met
CCc1cc2c(cc1CC)CC(NC[C@H](O)c1ccc(O)c3[nH]c(=O)ccc13)C2	rule met
CC(C)Oc1ccc(C(=O)N[C@H](CNC(=O)CN(C)C)Cc2ccc(-c3cn4cccc([C@H](C)O)c4n3)cc2)cc1Cl [GSK-923295A]	rule met
Nc1ccc(C(=O)Nc2cccc(-c3nc(N4CCOCC4)c4oc5ncccc5c4n3)c2)cn1	rule met
CNc1oc(-c2cccc3ccccc23)nc1C#N	rule met
CCOc1cc2ncc(C#N)c(Nc3ccc(OCc4cccc(F)c4)c(Cl)c3)c2cc1NC(=O)/C=C/CN(C)C	rule met
CCCn1c(=O)c2[nH]c(C34CC5CC(CC3C5)C4)nc2n(CCC)c1=O	rule met

* * *

- System: HEK-293T
- ASSAY_TEXT: Multiplex assay against HEK293T
- Assay type: toxicity, cell-based
- CONDITION_DESCRIPTION: human, 24 h, 1 µM, compound concentration 1 uM, replicate 2
Some compounds, each annotated with its measured Population Membrane Permeable-Phenotype (%).
ATTRIBUTE_MEASURED: Population Membrane Permeable-Phenotype (%)

> print(dat)
                                    compound  value.reported
 1  COc1cc2c(Nc3ccc(NC(=O)c4ccccc4)cc3)ncnc2cc1OCCCN1CCOCC1              22
 2  CC(C)Oc1ccc(C(=O)N[C@H](CNC(=O)CN(C)C)Cc2ccc(-c3cn4cccc([C@H](C)O)c4n3)cc2)cc1Cl [GSK-923295A]               4
 3  CN(C)C/C=C/C(=O)Nc1cc2c(Nc3ccc(F)c(Cl)c3)ncnc2cc1O[C@H]1CCOC1.O=C(O)/C=C\C(=O)O.O=C(O)/C=C\C(=O)O [AFATINIB DIMALEATE]               4
 4  Cl.Cl.Nc1ncnc2c1c(-c1cccc(OCc3ccccc3)c1)cn2[C@H]1C[C@@H](CN2CCC2)C1               4
 5  Cl.Cl.NC1(c2ccc(-c3nc4ccn5c(=O)[nH]nc5c4cc3-c3ccccc3)cc2)CCC1              14
 6  COc1cc(N2CCC(N(C)C)CC2)ccc1Nc1ncc(Cl)c(Nc2ccccc2P(C)(C)=O)n1               3
 7  COc1ccc(NS(=O)(=O)c2sc3ccc(Cl)cc3c2C)cc1N1CCNCC1.Cl               4
 8  Cc1cc2c(cc1N1C(=O)c3cccc4c(CCCO)ccc(c34)C1=O)n(C)c(=O)n2C               9
 9  c1ccc2oc(-c3csc(C4CCN(Cc5nc6ncccc6[nH]5)CC4)n3)cc2c1               4
10  CNC(=O)c1cc(Oc2ccc(NC(=O)Nc3cc(C(C)(C)C)nn3-c3ccc4ncccc4c3)c(F)c2)ccn1 [REBASTINIB]               9
11  CN(C)CCOc1ccc(-c2nc(-c3ccncc3)c(-c3ccc4c(c3)CC/C4=N\O)[nH]2)cc1 [SB590885]              27
12  Nc1nc2c(c(N3CCNCC3)n1)CCC1=C2[C@@H]2CCCC[C@@H]2O1               2
13             CNc1oc(-c2cccc3ccccc23)nc1C#N              15
14  CCn1c(-c2nonc2N)nc2cnc(Oc3cccc(NC(=O)c4ccc(OCCN5CCOCC5)cc4)c3)cc21 [GSK-269962A]               4
15  N#Cc1cnc(Nc2cc(NC[C@H]3CNCCO3)c(C(F)(F)F)cn2)cn1 [SRA-737]               8
16  COc1cc2c(NC3CCN(C(C)C)CC3)nc(N3CCC(F)(F)CC3)nc2cc1OCCCN1CCCC1               4
17  Cc1cn(-c2cc(NC(=O)c3ccc4c(c3)CN(c3cncnc3)C[C@@H]4C)cc(C(F)(F)F)c2)cn1               5
